tested on: AsPC1, BxPC3, PANC1, MIAPaCa2, PO2, A375VR, SKMEL-28, HCT-116, 4T1, U87, U251, T98G, CT2A cells; test: Cytotoxicity studies, sulforhodamine B (SRB) assay; type: cell-based, human and murine; settings: 48 hours; range over all the cell lines; read-out: IC50 (cell survival)

{"Smi": "CC(C)COc1ccc(CNC(=O)N(Cc2ccc(F)cc2)C2CCN(C)CC2)cc1", "IC50": "3 to 8 µM"}
